assay: Part A single-ascending-dose plasma PK in healthy subjects; type: in vivo, human; conditions: human, plasma, iv, 8 g, part A cohort 7, single 8.0 g, 3-h i.v. infusion
Recorded endpoint: AUC(0-inf) (µg·h/mL)
Answers are plain numbers, in µg·h/mL.

Task item: Item CC1=C[C@@H]2CN(C(=O)N2OS(=O)(=O)O)[C@@H]1C(N)=O [DUR, Durlobactam] has what recorded AUC(0-inf)?
Reply: 732

====

test: Part B multiple-ascending-dose plasma PK in healthy subjects; format: in vivo, human; conditions: human, plasma, iv, 0.5 g, part B cohort 10 (4 subjects), 0.5 g q6h 3-h i.v. infusion, day 8; read-out: AUC0–tau
Recorded endpoint: AUC (ng·h/mL)
Numbers only, in ng·h/mL.

Task item: Item CC1=C[C@@H]2CN(C(=O)N2OS(=O)(=O)O)[C@@H]1C(N)=O has what recorded AUC?
Reply: 53400

====

assay: Part A single-ascending-dose plasma PK in healthy subjects; assay type: in vivo, human; settings: human, plasma, iv, 4 g, part A cohort 6, single 4.0 g, 3-h i.v. infusion; read-out: AUC0–24
Recorded endpoint: AUC(0-t)

Task item: Item CC1=C[C@@H]2CN(C(=O)N2OS(=O)(=O)O)[C@@H]1C(N)=O has what recorded AUC(0-t)?
Reply: 367 µg·h/mL

====

test: Part A single-ascending-dose plasma PK in healthy subjects; format: in vivo, human; conditions: human, plasma, iv, 1 g, part A cohort 8 (elderly subjects >65 years), single 1.0 g, 3-h i.v. infusion; read-out: AUC0–t
Recorded endpoint: AUC(0-t) (µg·h/mL)
Numbers only, in µg·h/mL.

Task item: Item CC1=C[C@@H]2CN(C(=O)N2OS(=O)(=O)O)[C@@H]1C(N)=O has what recorded AUC(0-t)?
Reply: 151

====

experiment: Part A single-ascending-dose plasma PK in healthy subjects; assay type: in vivo, human; details: human, plasma, iv, 1 g, part A cohort 8 (elderly subjects >65 years), single 1.0 g, 3-h i.v. infusion; read-out: AUC0–24
Recorded endpoint: AUC(0-t) (µg·h/mL)
One number for each entry, in µg·h/mL.

Task item: Item CC1=C[C@@H]2CN(C(=O)N2OS(=O)(=O)O)[C@@H]1C(N)=O has what recorded AUC(0-t)?
Reply: 151

====

assay: Part B multiple-ascending-dose plasma PK in healthy subjects; format: in vivo, human; conditions: human, plasma, iv, 0.25 g, part B cohort 9, 0.25 g q6h 3-h i.v. infusion, day 8
Recorded endpoint: Cmax (ng/mL)
One number for each entry, in ng/mL.

Task item: Item CC1=C[C@@H]2CN(C(=O)N2OS(=O)(=O)O)[C@@H]1C(N)=O has what recorded Cmax?
Reply: 7500

====

experiment: Part A single-ascending-dose plasma PK in healthy subjects; assay type: in vivo, human; conditions: human, plasma, iv, 0.25 g, part A cohort 1, single 0.25 g, 3-h i.v. infusion
Recorded endpoint: AUC(0-inf) (ng·h/mL)
Numbers only, in ng·h/mL.

Task item: Item CC1=C[C@@H]2CN(C(=O)N2OS(=O)(=O)O)[C@@H]1C(N)=O has what recorded AUC(0-inf)?
Reply: 25500

====

experiment: Part A single-ascending-dose plasma PK in healthy subjects; format: in vivo, human; conditions: human, plasma, iv, 8 g, part A cohort 7, single 8.0 g, 3-h i.v. infusion; read-out: Vss
Recorded endpoint: Vd (L)
Answers are plain numbers, in L.

Task item: Item CC1=C[C@@H]2CN(C(=O)N2OS(=O)(=O)O)[C@@H]1C(N)=O [DUR, Durlobactam] has what recorded Vd?
Reply: 28.1

====

assay: Part A single-ascending-dose plasma PK in healthy subjects; type: in vivo, human; settings: human, plasma, iv, 0.5 g, part A cohort 2, single 0.5 g, 3-h i.v. infusion
Recorded endpoint: Cmax (ng/mL)
One number for each entry, in ng/mL.

Task item: Item CC1=C[C@@H]2CN(C(=O)N2OS(=O)(=O)O)[C@@H]1C(N)=O has what recorded Cmax?
Reply: 9900

====

experiment: Part C single-dose drug-drug interaction plasma PK in healthy subjects; conditions: human, in vivo, Cmax, part C cohort 14, DUR 1 g + IMI-CIL 0.5 g + SUL 1 g, day 8
Recorded endpoint: Cmax (ng/mL)
One number for each entry, in ng/mL.

Task item: Item CC1(C)C[C@@H]1C(=O)N/C(=C\CCCCSC[C@H](N)C(=O)O)C(=O)O has what recorded Cmax?
Reply: 40700

====

Test: Part B multiple-ascending-dose plasma PK in healthy subjects
Assay type: in vivo, human
Conditions: human, plasma, iv, 1 g, part B cohort 11 (5 subjects), 1.0 g q6h 3-h i.v. infusion, day 1
Protocol: This was a 4-part, double-blind, placebo-controlled study (15 cohorts) of DUR administered as a 3-h i.v. infusion (except for cohort 4, in which a 2-h i.v. infusion was evaluated) (see Table S5 in the supplemental material). […] AUC was calculated using the log-linear trapezoidal rule. […]
Recorded endpoint: Cmax (ng/mL)
One number for each entry, in ng/mL.

Task item: Item CC1=C[C@@H]2CN(C(=O)N2OS(=O)(=O)O)[C@@H]1C(N)=O [DUR, Durlobactam] has what recorded Cmax?
Reply: 26900

====

test: Part A single-ascending-dose plasma PK in healthy subjects; assay type: in vivo, human; settings: human, plasma, iv, 1 g, part A cohort 8 (elderly subjects >65 years), single 1.0 g, 3-h i.v. infusion; read-out: Vss
Recorded endpoint: Vd

Task item: Item CC1=C[C@@H]2CN(C(=O)N2OS(=O)(=O)O)[C@@H]1C(N)=O [DUR, Durlobactam] has what recorded Vd?
Reply: 14.5 L

====

assay: Part C single-dose drug-drug interaction plasma PK in healthy subjects; conditions: human, in vivo, CL, part C cohort 13, DUR 1 g + SUL 1 g coadministered, day 5
Recorded endpoint: clearance (mL/min)
One number for each entry, in mL/min.

Task item: Item CC1(C)[C@H](C(=O)O)N2C(=O)C[C@H]2S1(=O)=O has what recorded clearance?
Reply: 230

====

assay: Part D multiple-dose coadministration of DUR, SUL and IMI-CIL, plasma PK in healthy subjects; conditions: human, in vivo, Cmax, DUR 1 g + SUL 1 g + IMI-CIL 0.5 g q6h, day 1
Please go through the items and note down their Cmax.
I'd appreciate it if you included the unit after the number.

>>> result("CC1(C)C[C@@H]1C(=O)N/C(=C\\CCCCSC[C@H](N)C(=O)O)C(=O)O")
"38600 ng/mL"

Please find the next compound below.
Task item: Item CC1(C)[C@H](C(=O)O)N2C(=O)C[C@H]2S1(=O)=O has what recorded Cmax?
Reply: 23900 ng/mL

====

test: Urine PK (urinary excretion, renal clearance) in healthy subjects; conditions: human, urine, intravenous, 4 g, CLr, mean, part A cohort 6, single 4 g, n=4
Recorded endpoint: CL renal (mL/min)
One number for each entry, in mL/min.

Task item: Item CC1=C[C@@H]2CN(C(=O)N2OS(=O)(=O)O)[C@@H]1C(N)=O has what recorded CL renal?
Reply: 132

====

assay: Part A single-ascending-dose plasma PK in healthy subjects; format: in vivo, human; details: human, plasma, iv, 1 g, part A cohort 3, single 1.0 g, 3-h i.v. infusion
Recorded endpoint: AUC(0-inf) (ng·h/mL)
Numbers only, in ng·h/mL.

Task item: Item CC1=C[C@@H]2CN(C(=O)N2OS(=O)(=O)O)[C@@H]1C(N)=O has what recorded AUC(0-inf)?
Reply: 76100

====

Please go through the items and note down their AUC.
assay: Part D multiple-dose coadministration of DUR, SUL and IMI-CIL, plasma PK in healthy subjects; conditions: human, in vivo, AUC0–tau, DUR 1 g + SUL 1 g + IMI-CIL 0.5 g q6h, day 1
I'd appreciate it if you included the unit after the number.

>>> result("CC1(C)C[C@@H]1C(=O)N/C(=C\\CCCCSC[C@H](N)C(=O)O)C(=O)O")
"45600 ng·h/mL"

Task item: Item CC1(C)[C@H](C(=O)O)N2C(=O)C[C@H]2S1(=O)=O has what recorded AUC?
Reply: 76700 ng·h/mL

====

assay: Part B multiple-ascending-dose plasma PK in healthy subjects; assay type: in vivo, human; details: human, plasma, iv, 0.5 g, part B cohort 10 (4 subjects), 0.5 g q6h 3-h i.v. infusion, day 1
Recorded endpoint: Cmax (ng/mL)
Answers are plain numbers, in ng/mL.

Task item: Item CC1=C[C@@H]2CN(C(=O)N2OS(=O)(=O)O)[C@@H]1C(N)=O [DUR, Durlobactam] has what recorded Cmax?
Reply: 14900

====

assay: Part A single-ascending-dose plasma PK in healthy subjects; format: in vivo, human; details: human, plasma, iv, 0.25 g, part A cohort 1, single 0.25 g, 3-h i.v. infusion, median
Recorded endpoint: Tmax (h)
Answers are plain numbers, in h.

Task item: Item CC1=C[C@@H]2CN(C(=O)N2OS(=O)(=O)O)[C@@H]1C(N)=O has what recorded Tmax?
Reply: 3
